Catalogue of self-cleavage kobs at 160 uM GlcN6P readings, one per entry.
B1: glmS ribozyme (parent)
chain: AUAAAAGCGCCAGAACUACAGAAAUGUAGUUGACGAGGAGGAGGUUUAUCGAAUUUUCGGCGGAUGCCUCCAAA

Variants of: B1
Experiment: self-cleavage kobs at 160 uM GlcN6P; higher = faster cleavage; RNA array
Conditions: with glucosamine-6-phosphate
Fewer inactive variants are shown than the library holds.
RESULT_TYPE: self-cleavage kobs at 160 uM GlcN6P

INSERT INTO results (record_sequence, reported) VALUES
  ('AUAAAAGCGACAGGACUACAGAAAUGUAGUUGACGAGGAGGAGGUUUAUCGAAUUUUCGGCGGAUGCCGCCAAA [C10A A14G U69G]', '0.000148 s⁻¹'),
  ('AUAAAAGCGCCAGAAUUACAGAAAUGUAGUUGACGAAGAGGAGGUUUAUCGAAUUUUCGGCGGAUGCCUCCAAA [C16U G37A]', '0.000108 s⁻¹'),
  ('AUAAAAGCGCCAGACCUACAGAAAUGUAGUUGACGAGGAGGAGUUUUAUCGAAUUUUCGGCGGAUGCCUCCAAA [A15C G44U]', '< 1e-05 s⁻¹'),
  ('AUAAAAGCGCCAGAACUACAGAAAUGUAGUUGACGAGGGGGAGGUUUAUCUAAUUUUCUGCGGAUGCCUCCAAA [A39G G51U G59U]', '< 1e-05 s⁻¹'),
  ('AUAAAAGCGCCAGAACUACAGAAAUGUAGUUGACGAGGAGGACGAUUAUCGAAUUUUCGGCGGAUGUCUCCAAA [G43C U45A C67U]', '0.000282 s⁻¹'),
  ('AUAAAAGCGCCAGAACUACAGAAAUGUAGUUGACGAGGUGGAGGUUUAUCGAAUUAUCGGCGGAUGCCUCCAAA [A39U U56A]', '0.000238 s⁻¹'),
  ('AUAAAAGCGCCAGAACUACAGAAAUGUAGUUGACGAGGAGGAUGUUUAUCGAAUUUUCGGCGUAUGCCUCCAAA [G43U G63U]', '< 1e-05 s⁻¹'),
  ('AUAAAAGCGUCAGAACUACAGAAAUGUAGUUGACGAGGAGGAGGUUUAUCGAAUUUUGGGCGGAUGCCUCCAAA [C10U C58G]', '< 1e-05 s⁻¹'),
  ('AUAAAAGCGCCAGAACUACAGAAAUGUAGUUGACGAGGACGAGGUUUAUCGAAUUUUCGUCGGAUGGCUCCAAA [G40C G60U C67G]', '< 1e-05 s⁻¹'),
  ('AUAAACGCGCCAGAACUACAGAAAUGUAGUUGACGAGCAGGAGGUUUAUCGAAUUUUCGGCGGAUGCCUCCAAA [A6C G38C]', '< 1e-05 s⁻¹'),
  ('AUAAACGCGCCAGAACUACAGAAAUGUAGUUGACGAGGAGGAGGUUUAUCGAAUUUUCGUCGGAUGCCUCCAAA [A6C G60U]', '< 1e-05 s⁻¹');
